# Test system: MS2 coat protein
# assay info: apparent KD of MS2 coat protein; designed switch direction (-1 OFF switch, 1 ON switch): -1; higher = weaker reporter binding
# condition notes: input ligand: none
# binarize apparent KD of MS2 coat protein: threshold 40 nM inclusive, high side yes, low side no

Completed entries (count: 5):
>  <query sequence>
CUCAAAAGUCGGUUUACACACAUGAGGAUCACCCAUGUAAGCAAACAUAUAGGCUCUACGAUUUGCUCGCUCUUAUA [Eternabot (L1) Solution 34] (Eterna round: R97, puzzle: Sensor, turn-off variant 1)

>  <assigned category>
no

$$$$
>  <query sequence>
AUUUGCACGCUGCGGUCCUACAUGAGGAUCACCCAUGUGGUCUGGUGGCGUGGGUCGCCGGACUUGGCUCGUCUUGU [salish99_S_TOV1_R5_033] (Eterna round: R97, puzzle: Sensor, turn-off variant 1)

>  <assigned category>
no

$$$$
>  <query sequence>
GCUCCAGGAGGAUAUGCAUUCGAAAACAUGAGGAUCACCCAUGUAGGUGUCCUCGUGCGAGCAGAAGGCCUAAAAC [Rebebiso] (Eterna round: R97, puzzle: Exclusion 5)

>  <assigned category>
yes

$$$$
>  <query sequence>
UCAGGUCGGUAGGAUAUCGACGGGAAAAUCCCACGAGAAGGACUGACAUGAGGAUCACCCAUGUGAGCGUAACC [EX6 B.11] (Eterna round: R97, puzzle: Exclusion 6)

>  <assigned category>
yes

$$$$
>  <query sequence>
UGUUGUUACGUAGGAUAUGGCCAACAGGCCCUAGGAUAUGCGAAAGCAGAAGGAGCGCCAACAGGCGAGAAGGACGGGUUAACA [pwkr exNG2 2xF7 2xFMN.15] (Eterna round: R96, puzzle: Exclusion NG 2)

>  <assigned category>
yes

$$$$

Ask | Reported apparent KD of MS2 coat protein reaches at least 40 nM for CAGUACUGAGGAUAUACAUGAGGAUCACCCAUGUGUUCCAGCUAGGAUACUAGCAAAGGAAGAAGGCAGUACUG [Mat - Exclusion 3 - Eli Mod - D2] (Eterna round: R97, puzzle: Exclusion 3) ?
Reply | no

Ask | Request: ACUCAACAGUAGGAUAUCAUCAAACUAUUGUGAUGAGAAGGACUGACAUGAGGAUCACCCAUGUUAACGUGAUG [Mod of Brourd 2 - Jieux - Exclusion 6] (Eterna round: R97, puzzle: Exclusion 6)
Reply | no

Ask | Request: CCAUGUAGAGGAUAUCUUAAGCUAGACAUGAGGAUCACCCAUGUGACUAUUCCUAUGAGCGGAGAAGGCUGAACCA [Eternabot (L2) Solution 64] (Eterna round: R97, puzzle: Exclusion 5)
Reply | no

----------
# Tested on: MS2 coat protein
# assay info: apparent KD of MS2 coat protein; designed switch direction (-1 OFF switch, 1 ON switch): 1; higher = weaker reporter binding
# condition notes: Eterna round: R95; input ligand: none
# binarize apparent KD of MS2 coat protein: threshold 0.08 µM inclusive, high side TRUE, low side FALSE

Completed entries (count: 3):
>  <query sequence>
UGUCCAGCCUGAGCUGGACAAAAGCAUGUACAUGAGGAUCACCCAUGUUCAUGUACAAGCUUUUUGCUCGUCUUAAC [salish99_208a_r3_033] (puzzle: Sensor for hsa-mir-208a)

>  <target under test>
MS2 coat protein

>  <assigned category>
TRUE

$$$$
>  <query sequence>
GGAGCUGGCACUGAGGAUAUUCAUAUUUAAACAUGAGGAUCACCCAUGUAGGCCAGAAGGCCUUGGGAGAAGGCAGGUCGGCUCG [salish99_ss2_r3_085] (puzzle: Same State 2)

>  <target under test>
MS2 coat protein

>  <assigned category>
TRUE

$$$$
>  <query sequence>
AGUCCAGCCUGAGCUGGACAAAAGCAUGUACAUGAGGAUCACCCAUGUUCGUGUACAAGCUUUUUGCUCGUCUUAAA [Zipper 52 - 5] (puzzle: Sensor for hsa-mir-208a)

>  <target under test>
MS2 coat protein

>  <assigned category>
TRUE

$$$$

Ask | Reported apparent KD of MS2 coat protein reaches at least 0.08 µM for AGUCCAGCCUGAGCUGGACAAGAGCAUGUACAUGAGGAUCACCCAUGUCAUGUACAAGCUUUUUGCUCGUCUUAAAA [Zipper 46 - 2] (puzzle: Sensor for hsa-mir-208a) ?
Reply | TRUE

Ask | Request: AGUCCACCCUGAGGUGGACAAAAGCAUGUACAUGAGGAUCACCCAUGUCAUGUACAAGCUUUUUGCUCGUCUUAAUA [Mat - hsa-mir-208a - Mod of JL - D42] (puzzle: Sensor for hsa-mir-208a)
Reply | TRUE

Ask | Request: UAGACAAGCUUUAUGUUCUUCCUAUUCCAACAUGAGGAUCACCCAUGUAGUCUGUCGAUUGUGAGUGUAGUUGAGAU [JR_SHM208A_Sub026] (puzzle: Sensor for hsa-mir-208a)
Reply | FALSE

Ask | Request: AAAACACAUGAGGAUCACCCAUGUACCAGGUACAUAGGAUAUCCAGGCGCCAAAUAGCGCGGAGAAGGAUGGAAAA [Radireatdi] (puzzle: Same State 1)
Reply | TRUE

Ask | Request: UUUAGUUGCGGGCAGGAUAUGUAUUAAAAUACAUGAGGAUCACCCAUGUGAGGUCAUAAAGACCUACAGAAGGGCCAAUCGCGAC [Laonerce - 16] (puzzle: Same State 2)
Reply | FALSE

Ask | Request: CAAGUACAUGAGGAUCACCCAUGUGGAAGAGAUGCAGGAUAUGUGGGAGAAGGGAGUGUAACAGAAGGGCAAGGAG [JR_SS!_Sub019] (puzzle: Same State 1)
Reply | TRUE

Ask | Request: AGCGAAAUAAGCAAGGAUAUGUAAUUUGGCACAUGAGGAUCACCCAUGUCAAUCCAUUUUUUUGAACAGAAGGUGCAUUUUUUUU [ak second] (puzzle: Same State 2)
Reply | FALSE

----------
Exercise: state measured apparent KD of K4 kissing-loop reporter for each of the sequences provided.
# Tested on: K4 kissing-loop RNA reporter;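 note: bound reporter read as fluorescence of individual clusters on recovered sequencing chips by microscopy, with normalized cluster intensities fitted with a binding model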
# assay info: apparent KD of K4 kissing-loop reporter; higher = weaker reporter binding
# condition notes: Eterna round: R107; input ligand: arginine 13.2 mM
Numbers only, in nM.

Kindly give each listed record's apparent KD of K4 kissing-loop reporter.
1. CUUGGAAGGACGGCCGCCACUGGGCAGUGAUGUUGCCCGACCAGGUAACGCAGUGAUGUUGCGACCAGGACCGGGUCCUAGGAAU [Exclusion Tryptophan B GF 24]
2. GGCACUACAGCGGCCGCCACUGUUUAGUCCAUCGCUUGCGAGUGAUGUUCGUAGGUACUGCAGCUCAGGACCGGGCUGUCCUUAC [theeternabot_sameState_KL_Trp_B_34]
3. GUGCAAAGCACCGGCACGAGCAGCUUAAAGGAGGAUAUGACGAAAGUCAGAAGGUUUAGUGAUGUUAGGCCUUGCUUGAGUCGAA [#01 K4 FMN A Exclusion]

Reply |
1: 140; 2: 393; 3: 265

----------
# System: MS2 coat protein
# assay info: apparent KD of MS2 coat protein, switch OFF state (with FMN for OFF switches, without FMN for ON switches); designed switch direction (-1 OFF switch, 1 ON switch): 1; higher = weaker reporter binding
# condition notes: FMN input: 0 or 200 uM; Eterna round: R93 (includes R88 designs)
Exercise: state measured apparent KD of MS2 coat protein for each of the sequences provided.
Answers are plain numbers, in nM.

>  <query sequence>
UAAAAACAUGAGGAUCACCCAUGUGAGAACAUGGGAGGAUAUACAAAGACGAAAGUCAAAGUAGAAGGCCUAAAAU [Mat - Same State 1 - Mod - D170]

>  <measured quantity>
apparent KD of MS2 coat protein

>  <observed value>
15.9

$$$$

Kindly give each listed record's apparent KD of MS2 coat protein.
1. GAUAUACAUGAGGAUCACCCAUGUUAGGUGGGUCAAGGAUAUUGAUAUAAAUAAAAAACUCGAGAAGGUGAAUAAA [JR_SS001_Sub020]
2. UGGAAACAUGAGGAUCACCCAUGUAAAAGGUGGUCAGGAUAUGCGAAAAGAAAAAGAAAAGUAGAAGGGACAAGAA [Mod of Eli's Mod]
3. CUGGACAUAGUAUAGGAUAUAUGAAUAAUUACAUGAGGAUCACCCAUGUCCAUUUAUAUGGGAACAUAGAAGGGUGGUAGUUAAG [Mat - Same state - Malcolm Mod - D142]
4. AAGAAACAUGAGGAUCACCCAUGUAGAAACAUGGGAGGAUAUACAAAGACGAAAGUCAAAGUAGAAGGCCUAAGAA [Mat - Same State 1 - Mod - D164]
5. GAAAAACAUGAGGAUCACCCAUGUAGAAAUAUGGGAGGAUAUACAAAGACGAAAGUCAAAGUAGAAGGCCUGAAAG [77%, Mat - Mod of Eli, 1]

Reply |
1. 153
2. 67.8
3. 97.6
4. 63.5
5. 136
